All figures here come from patent US12466821B2.

Molecular target: human CMV DNA polymerase UL54 (Human cytomegalovirus (strain AD169) (HHV-5) (Human herpesvirus 5), UniProt P08546)
Assay: CMV polymerase biochemical assay (molecular beacon-based)
Label Y when IC50 is strictly below 4 nM; at or above that, label N.

Solved entries (count: 5):
compound: CC1(S(=O)(=O)C2(CN3CCn4c(ccc(C(=O)NCc5ccc(C#N)c(F)c5)c4=O)C3=O)CC2)CC1
group: Y

compound: CC(C)(c1ncno1)S(=O)(=O)C1(CN2CCn3c(ccc(C(=O)NCc4ccc(C#N)cc4)c3=O)C2=O)CC1
group: Y

compound: N#Cc1ccc(CNC(=O)c2cc(F)c3n(c2=O)CCN(CC2(S(=O)(=O)C4CC4)CC2)C3=O)cc1
group: Y

compound: CN(CCN1CCn2c(ccc(C(=O)NCc3ccc(Cl)cc3)c2=O)C1=O)S(C)(=O)=O
group: N

compound: Cc1cc(C(=O)NCc2ccc(Cl)cc2)c(=O)n2c1C(=O)N(CCN1CCCS1(=O)=O)CC2
group: N

(Q) Field: below-cutoff. Rule: recorded IC50 strictly less than 4 nM. Subject: `CC(C)(c1nnn[nH]1)S(=O)(=O)C1(CN2CCn3c(ccc(C(=O)NCc4ccc(Cl)cc4)c3=O)C2=O)CC1`
(A) Y

(Q) Field: below-cutoff. Rule: recorded IC50 strictly less than 4 nM. Subject: O=C(NCc1ccc(Cl)cc1)c1ccc2n(c1=O)CCN(C1CCS(=O)(=O)C1)C2=O (stereo not drawn)
(A) N

(Q) Field: below-cutoff. Rule: recorded IC50 strictly less than 4 nM. Subject: `O=C(NCc1ccc(Cl)cc1)c1cc(C(F)(F)F)c2n(c1=O)CCN(CCN1CCCS1(=O)=O)C2=O`
(A) N

(Q) Field: below-cutoff. Rule: recorded IC50 strictly less than 4 nM. Subject: `CS(=O)(=O)CCCN1CCn2c(c(CO)cc(C(=O)NCc3ccc(Cl)cc3)c2=O)C1=O`
(A) N

(Q) Field: below-cutoff. Rule: recorded IC50 strictly less than 4 nM. Subject: `CS(=O)(=O)CCCN1CCn2c(c(Br)cc(C(=O)NCc3ccc(Cl)cc3)c2=O)C1=O`
(A) N

(Q) Field: below-cutoff. Rule: recorded IC50 strictly less than 4 nM. Subject: `CS(=O)(=O)C1(CN2CCn3c(ccc(C(=O)NCc4ccc(C#N)c(F)c4)c3=O)C2=O)CC1`
(A) Y

(Q) Field: below-cutoff. Rule: recorded IC50 strictly less than 4 nM. Subject: `Cc1cc(C(=O)NCc2ccc(Cl)cc2)c(=O)n2c1C(=O)N(CC1(S(C)(=O)=O)CC1)CC2`
(A) Y

(Q) Field: below-cutoff. Rule: recorded IC50 strictly less than 4 nM. Subject: `C[C@H](NC(=O)c1ccc2n(c1=O)CCN(CC1(S(C)(=O)=O)CC1)C2=O)c1ccc(Cl)cc1`
(A) N

(Q) Field: below-cutoff. Rule: recorded IC50 strictly less than 4 nM. Subject: `CC(C)(C(=O)NS(C)(=O)=O)S(=O)(=O)C1(CN2CCn3c(ccc(C(=O)NCc4ccc(Cl)cc4)c3=O)C2=O)CC1`
(A) N

(Q) Field: below-cutoff. Rule: recorded IC50 strictly less than 4 nM. Subject: CC(CN1CCn2c(ccc(C(=O)NCc3ccc(C#N)cc3)c2=O)C1=O)S(=O)(=O)C1CC1 (stereo not drawn)
(A) N
